assay: Pharmacokinetics and biodistribution after topical PS 8% ointment to hind paws (Example 25); assay type: in vivo, mouse; conditions: mouse, in vivo, topical or ocular, 50 μl per paw of PS 8% ointment, SN (sciatic nerve); normal mice, topical PS 8% ointment to hind paws; read-out: AUC0-24 h
observed.property: AUC(0-t) (µM·h)
The figure you give is taken to be in µM·h; do not add the unit.

Ask | For the compound CCOP(=O)(OCC)OCCCCOC(=O)CC1=C(C)/C(=C/c2ccc([S+](C)[O-])cc2)c2ccc(F)cc21 (stereo not shown) [PS, phosphosulindac] , give its measured AUC(0-t) value.
Reply | 12

---

Assay: Pharmacokinetics and biodistribution after 3% PS gel on outer surface of eyelid (Example 26)
Assay type: in vivo, rabbit
Settings: male, New Zealand White, rabbit, topical or ocular; conjunctiva; rabbits, 3% PS gel on outer surface of upper eyelids; read-out: AUC0-24 h
Protocol: The pharmacokinetics and biodistribution of 3% PS gel applied to the outer surface of both upper eyelids was studies in male New Zealand White rabbits. Eyelid and tissues of the globe were dissected and frozen quickly in liquid nitrogen until the levels of PS and its metabolites were determined by HPLC as described Xie et al. (Br J Pharmacol (2012);165:2152-66).
This section presents compounds with their documented AUC(0-t) values.
The figure you give is taken to be in µM·h; do not add the unit.

INSERT INTO measurements (compound, reading_unit, recorded_result) VALUES
  ('CCOP(=O)(OCC)OCCCCOC(=O)CC1=C(C)/C(=C/c2ccc([S+](C)[O-])cc2)c2ccc(F)cc21 (centres unmarked) [PS, phosphosulindac]', 'µM·h', 58.6);

// below: AUC(0-t) requested for another compound
Ask | For the compound CC1=C(CC(=O)O)c2cc(F)ccc2/C1=C\c1ccc([S+](C)[O-])cc1 (centres unmarked) [sulindac] , give its measured AUC(0-t) value.
Reply | 2.5
